B1: SMG5 (parent)
chain: QEKLQVLMAEGLLPAVKVFLDWLR

- Variants of: B1
- assay protocol: protein stability index of a GFP-peptide fusion (GPS, HEK-293T) (PSI 1-6); higher = more stable;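 also: lentivirally expressed fusions sorted by FACS into six bins by GFP to DsRed ratio, PSI derived from sequencing read proportions per bin multiplied by bin number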
- recorded conditions: c terminus: a fixed tail appended
Measured protein stability index by item

variant label | protein stability index
A9R | 4.4
L20M | 2.64
P14N | 2.38
V16R | 2.25
V16T | 2.46
V18Q | 3.07
W22M | 1.57
L12Q | 2.1
R24N | 1.92
L4R | 2.69
L20V | 1.4
E10Y | 1.56
P14T | 2.54
G11C | 1.99
V18C | 2.37
L4G | 3.1
V18M | 2.59
P14K | 3.27
V6H | 1.55
P14Y | 2.43
L23T | 1.19
K3E | 2.25
R24P | 3.34
Q5E | 4.03
K17T | 2.05
F19Y | 1.6
L7C | 1.54
L7Y | 1.86
R24K | 2.45
E2M | 2.83
L4M | 2.32
L4E | 1.12
K3R | 3.73
E2I | 2.23
K17F | 1.91
R24Q | 1.75
W22N | 2.28
L23H | 1.27
V6K | 2.16
F19A | 2.97
K17P | 1.2
L20R | 1.58
D21F | 3.72
Q1I | 2.95
A15D | 1.66
E10L | 1.93

From: the supplement of paper PMC10567573
